test: Pharmacokinetics (PK) evaluation in mice; assay type: in vivo; conditions: mouse, plasma; ICR mice, po 10 mg/kg, 0.5 hour; read-out: Plasm drug conc.
ENDPOINT_NAME: concentration at 0.5 h (ng/mL)
Give a bare numeral; the unit ng/mL is implied.

-- ask Read off the recorded concentration at 0.5 h for CCOC(=O)C1=C(CN2CCN3C(=O)N(C45CCC(CC(=O)O)(C4)C5)C[C@@H]3C2)NC(c2nccs2)=N[C@H]1c1cccc(F)c1C
-- reply 2030

-- ask Query concentration at 0.5 h for CCOC(=O)C1=C(CN2CCN3C(=O)N(C45CC(CC(=O)O)(C4)C5)C[C@@H]3C2)NC(c2nccs2)=N[C@H]1c1cccc(F)c1C
-- reply 849
